Observed IC50 for UniProt P08922, reported per entry below.
Where a name gives a salt, the structure may show the parent alone.
Give bare numbers, in nM.

Please review the following examples before continuing.
COc1c(Nc2ncc(C#N)s2)nc(N2CCCC2c2ccc(C)cc2)nc1-c1cccnc1F (centres unmarked) | 52
Cc1ccc(C2CCCN2c2cc(C(F)(F)F)cc(Nc3ncc(C#N)s3)n2)cc1 (centres unmarked) | 65
Cc1ccc(C2CCCN2c2nc(C)c(C)c(Nc3ncc(C#N)s3)n2)cc1 (centres unmarked) | 1.8
Cc1ccc(C2CCCN2c2nc(Nc3ncc(C#N)s3)c(C)nc2C)cc1 (centres unmarked) | 4.2
COc1c(Nc2ncc(C#N)s2)nc(N2CCC[C@H]2c2ccc(C)cc2)nc1C(=O)N[C@H]1CC[C@H](O)CC1 | 2.1
CCc1c(C)nc(N2CCC[C@H]2c2ccc(C)cc2)nc1Nc1ncc(C#N)s1 [Example 70, maleate] | 2.9

Required: IC50, one value per compound below.
1. Cc1ccc([C@@H]2CCCN2c2cnc(C)c(Nc3ncc(C)s3)n2)cc1
2. Cc1ncc(N2CCCC2c2ccc(F)cc2)nc1Nc1ncc(C#N)s1 (centres unmarked)
3. COc1c(C)nc(N2CCC[C@H]2c2ccc(C)cc2)nc1Nc1ncc(F)s1
4. COc1cnc(N2CCCC2c2ccc(C)cc2)nc1Nc1ncc(C#N)s1 (centres unmarked)
5. COc1cccc(C2CCCN2c2cncc(Nc3ncc(C#N)s3)n2)c1 (centres unmarked)
6. Cc1cnc(Nc2nc(N3CCCC3c3ccc(Cl)cc3)cnc2C2CC2)s1 (centres unmarked)
7. COc1c(Nc2ncns2)nc(N2CCC[C@H]2c2ccc(C)cc2)nc1-c1cnn(CCO)c1
8. COc1cc(C)ccc1C1CCCN1c1cncc(Nc2ncc(C#N)s2)n1 (centres unmarked)

Response line:
1. 1.3
2. 0.71
3. 6.7
4. 2.6
5. 18
6. 5.3
7. 2.5
8. 0.5

Required: IC50, one value per compound below.
1. Cc1ccc([C@@H]2CCCN2c2cncc(Nc3ncc(C#N)s3)n2)cc1 [Example 1, hydrochloride]
2. Cc1ccc([C@@H]2CCCN2c2cc(C(N)=O)c(C3CC3)c(Nc3ncc(C#N)s3)n2)cc1
3. COc1c(Nc2ncc(C#N)s2)nc(N2CCC[C@H]2c2ccc(C)cc2)nc1-c1cnn(CCO)c1

Response line:
1: 1.6; 2: 0.84; 3: 1.5

* * *

Target: FIG-ROS/BaF3 cell (Homo sapiens, UniProt P08922)
Construct: fused on or other part: Q9HD26 (Golgi-associated PDZ and coiled-coil motif-containing protein)
Sequence (P08922 whole entry, change not shown, the tested form may be a part): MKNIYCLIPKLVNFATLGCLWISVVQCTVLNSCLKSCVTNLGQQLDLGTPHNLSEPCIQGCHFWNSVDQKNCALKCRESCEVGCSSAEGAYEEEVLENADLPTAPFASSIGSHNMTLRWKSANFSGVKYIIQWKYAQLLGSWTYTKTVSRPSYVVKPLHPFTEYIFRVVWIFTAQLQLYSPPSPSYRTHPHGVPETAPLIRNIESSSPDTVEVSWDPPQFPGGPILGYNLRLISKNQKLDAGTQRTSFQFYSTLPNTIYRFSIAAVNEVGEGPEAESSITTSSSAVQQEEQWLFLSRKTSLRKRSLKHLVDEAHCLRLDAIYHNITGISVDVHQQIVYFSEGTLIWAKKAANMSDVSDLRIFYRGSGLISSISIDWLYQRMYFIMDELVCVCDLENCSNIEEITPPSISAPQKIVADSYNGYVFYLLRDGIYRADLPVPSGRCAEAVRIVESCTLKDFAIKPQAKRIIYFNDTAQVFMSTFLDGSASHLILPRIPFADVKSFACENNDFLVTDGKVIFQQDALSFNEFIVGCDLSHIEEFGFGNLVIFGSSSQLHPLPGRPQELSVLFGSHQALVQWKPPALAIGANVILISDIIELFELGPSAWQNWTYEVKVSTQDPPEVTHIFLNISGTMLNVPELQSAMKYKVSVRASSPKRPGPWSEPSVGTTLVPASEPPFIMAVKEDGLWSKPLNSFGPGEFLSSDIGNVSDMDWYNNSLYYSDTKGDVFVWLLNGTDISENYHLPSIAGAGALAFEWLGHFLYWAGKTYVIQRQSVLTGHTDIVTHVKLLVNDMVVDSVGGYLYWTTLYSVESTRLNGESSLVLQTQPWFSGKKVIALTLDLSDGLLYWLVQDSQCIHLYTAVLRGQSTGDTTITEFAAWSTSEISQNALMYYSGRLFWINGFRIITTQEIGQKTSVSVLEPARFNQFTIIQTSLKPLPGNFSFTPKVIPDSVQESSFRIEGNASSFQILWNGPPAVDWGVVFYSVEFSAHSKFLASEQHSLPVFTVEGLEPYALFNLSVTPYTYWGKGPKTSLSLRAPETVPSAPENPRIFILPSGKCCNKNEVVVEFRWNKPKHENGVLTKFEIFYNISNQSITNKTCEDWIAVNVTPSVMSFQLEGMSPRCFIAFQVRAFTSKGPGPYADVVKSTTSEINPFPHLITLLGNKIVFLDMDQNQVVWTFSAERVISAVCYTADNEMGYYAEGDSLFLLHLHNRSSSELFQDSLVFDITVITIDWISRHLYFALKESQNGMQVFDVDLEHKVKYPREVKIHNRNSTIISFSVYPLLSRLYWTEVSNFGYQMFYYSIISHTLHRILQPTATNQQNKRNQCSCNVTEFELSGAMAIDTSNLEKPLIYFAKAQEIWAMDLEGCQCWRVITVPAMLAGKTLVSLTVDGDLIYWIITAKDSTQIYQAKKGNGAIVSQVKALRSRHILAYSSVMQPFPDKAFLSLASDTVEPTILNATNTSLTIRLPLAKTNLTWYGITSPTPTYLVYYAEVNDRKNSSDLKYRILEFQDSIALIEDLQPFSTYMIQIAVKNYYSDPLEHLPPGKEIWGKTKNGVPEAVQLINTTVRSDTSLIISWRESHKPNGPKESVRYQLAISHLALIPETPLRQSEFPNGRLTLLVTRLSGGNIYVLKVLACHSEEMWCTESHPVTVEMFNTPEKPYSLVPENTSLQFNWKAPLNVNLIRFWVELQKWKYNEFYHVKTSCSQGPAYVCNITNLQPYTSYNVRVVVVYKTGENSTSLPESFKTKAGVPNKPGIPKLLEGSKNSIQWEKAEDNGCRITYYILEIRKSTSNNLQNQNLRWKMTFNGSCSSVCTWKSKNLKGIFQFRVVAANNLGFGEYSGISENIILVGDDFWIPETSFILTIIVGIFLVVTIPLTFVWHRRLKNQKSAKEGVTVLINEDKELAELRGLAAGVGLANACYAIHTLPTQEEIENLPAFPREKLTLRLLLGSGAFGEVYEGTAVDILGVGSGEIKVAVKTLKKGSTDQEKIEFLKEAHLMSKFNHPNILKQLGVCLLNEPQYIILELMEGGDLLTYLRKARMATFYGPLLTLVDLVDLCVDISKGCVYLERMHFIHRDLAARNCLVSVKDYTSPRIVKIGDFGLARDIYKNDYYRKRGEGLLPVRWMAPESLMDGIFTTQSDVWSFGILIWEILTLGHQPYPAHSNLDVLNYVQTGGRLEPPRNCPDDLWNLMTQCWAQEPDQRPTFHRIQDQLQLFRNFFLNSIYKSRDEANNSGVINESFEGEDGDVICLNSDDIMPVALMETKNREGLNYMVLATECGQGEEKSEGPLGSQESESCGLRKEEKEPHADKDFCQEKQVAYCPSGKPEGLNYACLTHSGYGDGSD
Assay: Proliferation inhibitory activity test against FIG-ROS/BaF3 cell
Type: cell-based
Conditions: 3 days incubation, cell counting kit; read-out: Proliferation inhibitory activity against FIG-ROS/BaF3 cell (IC50)
Counter-ions that a name gives are not always drawn.
Kindly supply the reported GI50 values for the records listed here.
Answers are plain numbers, in nM.

N#Cc1cnc(Nc2cncc(N3CCCC3c3ccc(C(F)(F)F)cc3)n2)s1 (centres unmarked) | 4.5
COc1c(Nc2ncc(C#N)s2)nc(N2CCC[C@H]2c2ccc(C)cc2)nc1-c1ccc(O)nc1 | 1.9

Required: GI50, one value per compound below.
1. COc1c(Nc2ncns2)nc(N2CCC[C@H]2c2ccc(C)cc2)nc1-c1cnn(CCO)c1
2. CCc1c(C)nc(N2CCC[C@H]2c2ccc(C)cc2)nc1Nc1ncc(C#N)s1 [Example 70, maleate]
3. CCc1c(Nc2ncc(C#N)s2)nc(N2CCC[C@H]2c2ccc(C)cc2)nc1C(=O)NS(C)(=O)=O

Response line:
1
1.7
2.1

Required: GI50, one value per compound below.
1. COc1c(Nc2ncc(C#N)s2)nc(N2CCCC2c2ccc(C)cc2)nc1-c1ccc(F)nc1 (centres unmarked)
2. COc1c(C)nc(N2CCC[C@H]2c2ccc(C)cc2)nc1Nc1ncc(F)s1
3. COc1cc(OC)cc(C2CCCN2c2cncc(Nc3ncc(C#N)s3)n2)c1 (centres unmarked)

Response line:
1: 9.4; 2: 8.2; 3: 33
